Biological target: ΔF508-CFTR (Homo sapiens, UniProt P13569, DEL508-508)
Construct: host or cells: CFBE41o-, doxycycline-inducible
Sequence (P13569 with tags, fused parts or gaps DEL508-508): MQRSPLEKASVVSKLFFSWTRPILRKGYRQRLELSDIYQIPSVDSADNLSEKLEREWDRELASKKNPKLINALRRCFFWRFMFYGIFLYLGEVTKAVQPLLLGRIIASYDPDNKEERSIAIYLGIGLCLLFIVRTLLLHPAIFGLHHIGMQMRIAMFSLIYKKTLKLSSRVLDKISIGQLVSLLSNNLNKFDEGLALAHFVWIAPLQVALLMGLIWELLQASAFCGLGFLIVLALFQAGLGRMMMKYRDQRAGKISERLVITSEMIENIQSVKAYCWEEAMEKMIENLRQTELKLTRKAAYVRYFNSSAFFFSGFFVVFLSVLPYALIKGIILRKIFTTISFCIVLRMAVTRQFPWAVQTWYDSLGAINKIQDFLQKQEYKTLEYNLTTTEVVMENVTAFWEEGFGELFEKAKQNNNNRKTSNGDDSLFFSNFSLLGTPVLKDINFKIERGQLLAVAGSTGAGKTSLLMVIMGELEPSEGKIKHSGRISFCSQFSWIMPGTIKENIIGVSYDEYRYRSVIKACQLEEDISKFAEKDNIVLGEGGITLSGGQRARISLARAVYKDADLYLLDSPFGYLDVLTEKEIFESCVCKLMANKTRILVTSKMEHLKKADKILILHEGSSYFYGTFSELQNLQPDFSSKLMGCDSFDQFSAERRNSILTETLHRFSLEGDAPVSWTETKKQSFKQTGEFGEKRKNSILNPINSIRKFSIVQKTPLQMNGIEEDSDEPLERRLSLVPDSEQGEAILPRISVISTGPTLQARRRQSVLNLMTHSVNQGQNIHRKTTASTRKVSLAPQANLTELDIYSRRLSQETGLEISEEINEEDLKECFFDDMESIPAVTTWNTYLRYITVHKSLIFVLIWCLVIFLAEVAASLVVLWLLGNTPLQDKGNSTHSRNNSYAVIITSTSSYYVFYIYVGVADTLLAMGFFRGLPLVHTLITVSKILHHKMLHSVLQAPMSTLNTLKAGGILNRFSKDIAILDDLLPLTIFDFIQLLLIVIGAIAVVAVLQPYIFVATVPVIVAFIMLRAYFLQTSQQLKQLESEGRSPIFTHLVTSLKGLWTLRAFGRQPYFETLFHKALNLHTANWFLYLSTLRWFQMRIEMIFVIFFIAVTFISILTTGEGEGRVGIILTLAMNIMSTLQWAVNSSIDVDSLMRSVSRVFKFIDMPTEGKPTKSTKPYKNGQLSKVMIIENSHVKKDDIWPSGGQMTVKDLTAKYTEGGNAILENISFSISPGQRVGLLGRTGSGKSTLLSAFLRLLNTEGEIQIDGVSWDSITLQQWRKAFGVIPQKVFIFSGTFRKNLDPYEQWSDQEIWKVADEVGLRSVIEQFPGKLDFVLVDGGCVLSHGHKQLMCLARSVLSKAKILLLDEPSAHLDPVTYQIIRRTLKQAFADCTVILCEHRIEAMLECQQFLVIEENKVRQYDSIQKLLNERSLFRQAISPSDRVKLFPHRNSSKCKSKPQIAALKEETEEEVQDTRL
Assay: CFTR cell surface levels using HRP-tagged ΔF508-CFTR expressing CFBE cells, intrinsic corrector capacity
Format: cell-based
Details: HRP-tagged ΔF508-CFTR expressing CFBE cells; intrinsic corrector capacity (no co-corrector); 33° C., 20 hours
Give % Activation for every item shown.
One number for each entry, in %.

Consider the following illustrative entries.
CC(C)c1nn(-c2ccc(F)cc2)c2nc(C(=O)O)cc(N3CCN(CC4CCCO4)CC3)c12 (stereo not drawn) [compound 792] | 170.1
CC(C)c1nn(-c2ccc(F)cc2)c2nc(C(=O)O)cc(N3CCC(CN4CCCC4)CC3)c12 [compound 811] | 120.4
CC(C)c1nn(-c2ccc(F)cc2)c2nc(C(=O)O)cc(N3CCN(CC4CCCN(C)C4)CC3)c12 (stereo not drawn) [compound 791] | 79.95
CC(C)c1nn(-c2ccc(F)cc2)c2nc(C(=O)O)cc(N3CCC4(CCN(C)CC4)CC3)c12 [compound 781] | 154
O=C(O)c1cc(N2CC(N3CCCCC3)C2)c2c(C3CCC3)nn(-c3ccccc3)c2n1 [compound 466] | 116.25
CC(C)c1nn(-c2ccc(F)cc2)c2nc(C(=O)O)cc(N3CCN(CCO)CC3)c12 [compound 773] | 16.13

Please go through the list and note % Activation for each molecule.
1. COCC1(F)CCCN(c2cc(C(=O)O)nc3c2c(C2CCC2)nn3-c2ccccc2)C1 (stereo not drawn) [compound 595]
2. O=C(O)c1cc(N2CCN(CC3CCCO3)CC2)c2c(C3CCC3)nn(-c3ccccc3)c2n1 (stereo not drawn) [compound 681]
3. CC(C)c1nn(-c2ccc(F)cc2)c2nc(C(=O)O)cc(N3CCN(CCC(=O)N4CCCN(C)CC4)CC3)c12 [compound 779]
4. O=C(O)c1cc(N2CCC3(CCNC3=O)C2)c2c(C3CCC3)nn(-c3ccccc3)c2n1 (stereo not drawn) [compound 537]
5. CN1CCN(Cc2cc(C(=O)O)nc3c2c(C2CCC2)nn3-c2ccc(F)cc2)CC1 [compound 858]
6. CCN(CC)C(=O)C1CCCN(c2cc(C(=O)O)nc3c2c(C2CCC2)nn3-c2ccccc2)C1 (stereo not drawn) [compound 500]

1: 162.8; 2: 220.95; 3: 6.923; 4: 45.36; 5: 29.24; 6: 132.8

###

Target: ΔF508-CFTR (Homo sapiens, UniProt P13569, DEL508-508)
Construct: host or cells: CFBE41o-, doxycycline-inducible
Test: CFTR cell surface levels using HRP-tagged ΔF508-CFTR expressing CFBE cells, intrinsic corrector capacity
Assay type: cell-based
Conditions: HRP-tagged ΔF508-CFTR CFBE41o- cells, compounds alone (intrinsic corrector capacity), 20 hours at 33° C.; positive control 3 μM corrector
Doc: threshold 200% (exclusive). Items with % Activation beneath it return rule met; others return rule not met.

CCOC(=O)c1nn(-c2ccccc2)c2nc(C(=O)O)cc(-c3ccc(N4CCOCC4)cc3)c12 [compound 16] | rule met
COC1CN(c2cc(C(=O)O)nc3c2c(C(C)C)nn3-c2cccc(C)c2)C1 [compound 212] | rule met
CC(C)c1nn(C2CCN(CC(F)(F)F)CC2)c2nc(C(=O)O)cc(-c3ccc(N4CCOCC4)cc3)c12 [compound 117] | rule met
Cc1cccc(-n2nc(C(C)C)c3c(N4CC5(CCC5)C4)cc(C(=O)O)nc32)c1 [compound 273] | rule met

In the record for CC1(c2nn(-c3ccccc3)c3nc(C(=O)O)cc(-c4ccc(N5CCOCC5)cc4)c23)CC1 [compound 129] , is % Activation less than 200%?
rule met

Does this compound meet the criterion % Activation < 200%? Cc1nn(-c2ccccc2)c2nc(C(=O)O)cc(-c3ccc(N4CCOC(C)(C)C4)cc3)c12 [compound 119]
rule not met

Could you please tell me whether % Activation recorded for CC(C)c1nn(-c2ccccc2)c2nc(C(=O)O)cc(-c3ccc(N4CCCC4)cc3)c12 [compound 24] is less than 200%?
rule met

Does the reported % Activation of CC(C)c1nn(-c2ccc(F)cc2F)c2nc(C(=O)O)cc(-c3cnc(N4CCC(C#N)CC4)nc3)c12 [compound 325] stay below 200%?
rule met

Value source: patent US9796711B2
